- System: Staphylococcus aureus SAU.399 (ATCC 43300), Methicillin and Oxacillin Resistant
- Assay type: cell-based
- experimental_setup: ATCC 43300
- Protocol: Compounds according to Formula I were tested for antimicrobial activity against a panel of organisms. […] In all cases the final concentration of dimethyl sulfoxide incubated with cells is less than or equal to 1%. […] Following incubation, (18-20 hours at 37° C. with aeration at 200 rpm) growth was confirmed visually by placing plates over a viewing apparatus (stand with a mirror underneath) and then the optical density (OD600) was measured using a SpectraMax 340PC^384 plate reader. […]
For each of the compounds below, state its Sa399 MIC.
Answers are plain numbers, in µg/mL.

Guide cases for Sa399 MIC, answers given:
>  <compound>
CC(C)Cc1ccc(C(C)C(=O)N[C@@H](Cc2c[nH]c3ccccc23)C(=O)N[C@H](CC(N)=O)C(=O)N[C@@H](CC(=O)O)C(=O)N[C@@H]2C(=O)NCC(=O)N[C@@H](CCCN)C(=O)N[C@@H](CC(=O)O)C(=O)N[C@H](C)C(=O)N[C@@H](CC(=O)O)C(=O)NCC(=O)N[C@H](CO)C(=O)N[C@@H]([C@H](C)CC(=O)O)C(=O)N[C@@H](CC(=O)c3ccccc3N)C(=O)O[C@@H]2C)cc1 (single isomer, unassigned) [45 isomer II]

>  <readout_units>
µg/mL

>  <Sa399 MIC>
4

$$$$
>  <compound>
CCCCCCCCCC(C)(C)C(=O)N[C@@H](Cc1c[nH]c2ccccc12)C(=O)N[C@H](CC(N)=O)C(=O)N[C@@H](CC(=O)O)C(=O)N[C@@H]1C(=O)NCC(=O)N[C@@H](CCCN)C(=O)N[C@@H](CC(=O)O)C(=O)N[C@H](C)C(=O)N[C@@H](CC(=O)O)C(=O)NCC(=O)N[C@H](CO)C(=O)N[C@@H]([C@H](C)CC(=O)O)C(=O)N[C@@H](CC(=O)c2ccccc2N)C(=O)O[C@@H]1C [Compound 12]

>  <readout_units>
µg/mL

>  <Sa399 MIC>
2

$$$$

Next compound, please.
Please give measured Sa399 MIC of the following entry: C[C@H](CC(=O)O)[C@@H]1NC(=O)[C@@H](CO)NC(=O)CNC(=O)[C@H](CC(=O)O)NC(=O)[C@@H](C)NC(=O)[C@H](CC(=O)O)NC(=O)[C@H](CCCN)NC(=O)CNC(=O)[C@@H](NC(=O)[C@H](CC(=O)O)NC(=O)[C@@H](CC(N)=O)NC(=O)[C@H](Cc2c[nH]c3ccccc23)NC(=O)Cc2ccc(-c3ccc(Cl)cc3)cc2)[C@@H](C)OC(=O)[C@H](CC(=O)c2ccccc2N)NC1=O [Compound 65]
2

----------
- System: Staphylococcus aureus SAU.399 (ATCC 43300), Methicillin and Oxacillin Resistant
- Format: cell-based
- experimental_setup: ATCC 43300
property_name: Sa399 MIC (µg/mL)
Give bare numbers, in µg/mL.

>  <molecule>
CCCCCCc1ccc(/C(C)=C/C(=O)N[C@@H](Cc2c[nH]c3ccccc23)C(=O)N[C@H](CC(N)=O)C(=O)N[C@@H](CC(=O)O)C(=O)N[C@@H]2C(=O)NCC(=O)N[C@@H](CCCN)C(=O)N[C@@H](CC(=O)O)C(=O)N[C@H](C)C(=O)N[C@@H](CC(=O)O)C(=O)NCC(=O)N[C@H](CO)C(=O)N[C@@H]([C@H](C)CC(=O)O)C(=O)N[C@@H](CC(=O)c3ccccc3N)C(=O)O[C@@H]2C)cc1 [Compound 50]

>  <Sa399 MIC, µg/mL>
0.5

$$$$

Please give measured Sa399 MIC of the following entry: CCCCCc1ccc(C(=O)N[C@@H](Cc2c[nH]c3ccccc23)C(=O)N[C@H](CC(N)=O)C(=O)N[C@@H](CC(=O)O)C(=O)N[C@@H]2C(=O)NCC(=O)N[C@@H](CCCN)C(=O)N[C@@H](CC(=O)O)C(=O)N[C@H](C)C(=O)N[C@@H](CC(=O)O)C(=O)NCC(=O)N[C@H](CO)C(=O)N[C@@H]([C@H](C)CC(=O)O)C(=O)N[C@@H](CC(=O)c3ccccc3N)C(=O)O[C@@H]2C)cc1 [Compound 31]
4
